The reported measurements were obtained from patent US11787769B2.

Test: Pharmacokinetic analysis of plasma and liver levels in BALB/c mice
Details: read-out: Cmax level in the plasma; 10 mg/kg i.p.
ASSAY_ENDPOINT: Cmax (µM)
# output: bare number, implied unit µM

Quick note, Cmax for CC(C)(C)N1CCC(NC(=O)c2ccc(C(F)(F)F)cc2Cl)CC1 landed at 3.12

###

System: PR8-NS1-Gluc virus
Test: microbe, parasite or virus in culture
Type: cell-based, influenza A PR8
Details: Influenza A virus, PR8, MDCK, 48 h
ASSAY_ENDPOINT: EC50 (nM)
# output: bare number, implied unit nM

- COMPOUND: "CC(C)(C)N1CCC(NC(=O)c2ccc(C(F)(F)F)cc2Cl)CC1"
  EC50 / nM: 187

Quick note, EC50 for CCC(CC)O[C@@H]1C=C(C(=O)O)C[C@H](N)[C@H]1NC(C)=O [Oseltamivir carboxylate, reference compound] landed at 318

###

Molecular target: CYP2C9 (Homo sapiens)
Sequence (P11712 whole entry): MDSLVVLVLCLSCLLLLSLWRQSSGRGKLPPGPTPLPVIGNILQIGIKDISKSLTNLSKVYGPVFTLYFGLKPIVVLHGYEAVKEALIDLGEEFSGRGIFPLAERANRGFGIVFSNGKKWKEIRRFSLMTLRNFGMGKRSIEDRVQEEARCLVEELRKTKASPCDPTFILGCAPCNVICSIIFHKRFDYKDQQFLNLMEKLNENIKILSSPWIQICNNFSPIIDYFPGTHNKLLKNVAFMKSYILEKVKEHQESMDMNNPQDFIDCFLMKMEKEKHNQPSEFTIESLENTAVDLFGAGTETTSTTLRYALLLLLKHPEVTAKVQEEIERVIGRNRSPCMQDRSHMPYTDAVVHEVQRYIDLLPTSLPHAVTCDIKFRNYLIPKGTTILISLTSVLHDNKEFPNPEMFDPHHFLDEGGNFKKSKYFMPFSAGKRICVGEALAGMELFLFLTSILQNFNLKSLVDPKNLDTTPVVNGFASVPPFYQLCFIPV
pIC50: −log10 of the molar value.
ASSAY_ENDPOINT: pIC50

Tested on CYP2C9 (Homo sapiens), the item CC(C)(C)N1CCC(NC(=O)c2ccc(C(F)(F)F)cc2Cl)CC1 [Compound 16] showed pIC50 equal to < 4.00
